Please provide measured Blackgrass plant response rating for the entries that follow.
Test system: blackgrass
Assay: Test B pre/postemergence blackgrass
Format: in vivo, Alopecurus myosuroides
Conditions: Rate 62 g/ha, Postemergence; scale 0 to 10 (0 no effect, 10 complete control)
Please give only the number in your answer, with no unit.

Task item: Query: Blackgrass plant response rating; subject: CC(C)N(C(=O)n1oc(=O)n(Cc2nnsc2Cl)c1=O)c1ccc(F)cc1F
Reply: 0

Task item: Query: Blackgrass plant response rating; subject: CC(C)N(C(=O)n1oc(=O)n(COC(=O)C(C)(C)C)c1=O)c1ccc(F)cc1
Reply: 0

Task item: Query: Blackgrass plant response rating; subject: CCN(C(=O)n1oc(=O)n(C2CC2)c1=O)C1CCCCC1
Reply: 0

Task item: Query: Blackgrass plant response rating; subject: CC(C)N(C(=O)n1oc(=O)n(CC2=NCCCO2)c1=O)c1ccccc1
Reply: 0

Task item: Query: Blackgrass plant response rating; subject: CC(C)N(C(=O)n1oc(=O)n(C2CC3CCC2C3)c1=O)c1ccccc1 (stereo not shown)
Reply: 0

Task item: Query: Blackgrass plant response rating; subject: CC[Si](C)(C)Cn1c(=O)on(C(=O)N(c2ccc(Cl)cc2)C(C)C)c1=O
Reply: 2

Task item: Query: Blackgrass plant response rating; subject: CC(C)N(C(=O)n1oc(=O)n(Cc2ccccc2-c2ccccc2)c1=O)c1ccc(F)cc1
Reply: 0

Task item: Query: Blackgrass plant response rating; subject: C=CCCCn1c(=O)on(C(=O)N(c2ccc(F)cc2)C(C)C)c1=O
Reply: 1

Task item: Query: Blackgrass plant response rating; subject: CC1Cc2cccc(-n3c(=O)on(C(=O)N(c4ccc(F)cc4)C(C)C)c3=O)c2O1 (stereo not shown)
Reply: 0

Task item: Query: Blackgrass plant response rating; subject: CC(C)N(C(=O)n1oc(=O)n(CCCCF)c1=O)c1ccc(F)cc1
Reply: 5
